Reference source for all entries: patent US8163771B2

assayed-system: recombinant human 11 β-HSD1 (Homo sapiens, UniProt P28845)
Sequence (P28845 whole entry): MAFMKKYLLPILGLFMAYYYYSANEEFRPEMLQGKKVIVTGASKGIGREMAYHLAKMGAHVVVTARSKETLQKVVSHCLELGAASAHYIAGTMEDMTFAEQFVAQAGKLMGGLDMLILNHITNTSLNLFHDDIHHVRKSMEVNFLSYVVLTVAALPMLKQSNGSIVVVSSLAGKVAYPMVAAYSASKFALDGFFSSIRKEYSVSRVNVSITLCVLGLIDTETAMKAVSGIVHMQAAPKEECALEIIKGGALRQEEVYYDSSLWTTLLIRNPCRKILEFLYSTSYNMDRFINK
protocol-text: 11 β-HSD1 SPA Assay (Scintillation Proximity Assay)
pIC50: −log10 of the molar value.

[
  {
    "compound": "CC(C)(Oc1cc(CC(=O)O)c(Cl)cc1Cl)C(=O)N[C@H]1C[C@H]2CC[C@@H](C1)N2c1ccc(C(=O)NCC(F)F)cn1 [Example 460]",
    "pIC50": "> 6.70"
  },
  {
    "compound": "CC(C)(Oc1ccc(F)cc1)C(=O)N[C@H]1C[C@H]2CC[C@@H](C1)N2c1ccc(S(C)(=O)=O)cc1 [Example 233]",
    "pIC50": "> 5.70"
  },
  {
    "compound": "CC(C)(Oc1ccc(F)cc1C(F)(F)F)C(=O)N[C@H]1C[C@H]2CC[C@@H](C1)N2c1ccc(S(C)(=O)=O)nc1 [Example 288]",
    "pIC50": "> 5.70"
  },
  {
    "compound": "O=C(NC1CC1)c1ccc(N2[C@@H]3CC[C@H]2C[C@@H](NC(=O)C2(c4cccc(F)c4)CC2)C3)nc1 [Example 39]",
    "pIC50": "> 6.70"
  },
  {
    "compound": "CC(C)(Oc1ccc(Cl)cc1Cl)C(=O)N1[C@@H]2CC[C@H]1C[C@@H](Nc1ccc(C(N)=O)cn1)C2 [Example 302]",
    "pIC50": "> 6.70"
  },
  {
    "compound": "CC(C)(Oc1cc(C(F)(F)F)ccc1F)C(=O)N[C@H]1C[C@H]2CC[C@@H](C1)N2c1ccc(C(=O)NCC(F)(F)F)cn1 [Example 190]",
    "pIC50": "> 6.70"
  }
]
